Biological target: Xanthine oxidase (from bovine milk) (Bos taurus, UniProt P80457)
Construct: Xanthine oxidase (from bovine milk); purchased Sigma-Aldrich; host or cells: bovine milk (natural source)
Sequence (P80457 whole entry): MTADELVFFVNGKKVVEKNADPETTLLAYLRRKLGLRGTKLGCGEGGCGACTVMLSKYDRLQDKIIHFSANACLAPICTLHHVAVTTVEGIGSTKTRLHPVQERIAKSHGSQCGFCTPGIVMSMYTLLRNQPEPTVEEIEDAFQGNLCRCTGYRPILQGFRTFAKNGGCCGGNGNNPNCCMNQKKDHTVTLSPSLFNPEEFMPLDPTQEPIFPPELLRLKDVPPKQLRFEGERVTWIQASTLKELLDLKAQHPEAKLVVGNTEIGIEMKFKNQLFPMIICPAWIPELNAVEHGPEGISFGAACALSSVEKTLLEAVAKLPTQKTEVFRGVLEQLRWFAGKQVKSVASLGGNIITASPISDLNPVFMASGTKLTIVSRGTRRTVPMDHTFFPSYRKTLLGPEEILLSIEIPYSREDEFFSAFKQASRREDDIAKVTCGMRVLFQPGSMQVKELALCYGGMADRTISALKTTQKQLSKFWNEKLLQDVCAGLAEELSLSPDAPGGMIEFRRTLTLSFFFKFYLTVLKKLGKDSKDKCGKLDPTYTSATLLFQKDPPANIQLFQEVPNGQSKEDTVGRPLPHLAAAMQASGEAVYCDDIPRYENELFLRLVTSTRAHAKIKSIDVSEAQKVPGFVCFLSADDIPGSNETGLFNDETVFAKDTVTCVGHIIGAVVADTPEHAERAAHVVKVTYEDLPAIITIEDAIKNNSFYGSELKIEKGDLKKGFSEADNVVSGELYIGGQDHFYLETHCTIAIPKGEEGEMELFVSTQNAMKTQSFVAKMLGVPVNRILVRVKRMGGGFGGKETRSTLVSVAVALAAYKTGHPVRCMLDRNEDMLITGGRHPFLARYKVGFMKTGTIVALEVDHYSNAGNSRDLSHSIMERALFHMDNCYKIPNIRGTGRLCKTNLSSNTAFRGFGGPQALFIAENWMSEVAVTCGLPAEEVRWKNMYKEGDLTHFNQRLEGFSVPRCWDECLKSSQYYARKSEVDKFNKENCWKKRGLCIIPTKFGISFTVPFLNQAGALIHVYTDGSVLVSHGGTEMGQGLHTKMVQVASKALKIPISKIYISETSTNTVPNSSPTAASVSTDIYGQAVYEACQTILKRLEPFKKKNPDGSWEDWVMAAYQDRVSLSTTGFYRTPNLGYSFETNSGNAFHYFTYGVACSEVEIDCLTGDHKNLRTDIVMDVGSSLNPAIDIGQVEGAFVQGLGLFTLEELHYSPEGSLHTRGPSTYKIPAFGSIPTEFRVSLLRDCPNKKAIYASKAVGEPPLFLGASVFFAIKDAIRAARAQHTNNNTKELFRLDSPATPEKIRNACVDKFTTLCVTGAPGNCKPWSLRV
Assay: XO assay with hypoxanthine substrate (xanthine + uric acid formation, HPLC)
Assay type: biochemical
pIC50: −log10 of the molar value.
MEASURED_PROPERTY: pIC50

Which pIC50 reading was recorded for the compound O=c1[nH]c(=O)c2c[nH]nc2[nH]1 [Oxipurinol, oxipurinol, reference compound] ? < 5.52

---

Target: Xanthine oxidase (from bovine milk) (Bos taurus)
Construct: Xanthine oxidase (from bovine milk); purchased Sigma-Aldrich; host or cells: bovine milk (natural source)
Assay: XO assay with xanthine substrate (uric acid formation, HPLC)
Assay type: biochemical
MEASURED_PROPERTY: pIC50
FYI, pIC50 means -log10 of a concentration in mol per litre.

Recall the recorded pIC50 for COc1cc(-c2oc3cc(O)cc(O)c3c(=O)c2O)ccc1O with Xanthine oxidase (from bovine milk) (Bos taurus) and state it. 6.15

---

Molecular target: Xanthine oxidase (from bovine milk) (Bos taurus)
Construct: Xanthine oxidase (from bovine milk); purchased Sigma-Aldrich; host or cells: bovine milk (natural source)
Test: XO assay with xanthine substrate (uric acid formation, HPLC)
Format: biochemical
Conditions: 20 μM test compound (four-fold vs. substrate), 5 μM xanthine
Method: Xanthine (5 μM) was incubated with 0.0012 U/mL XO in the absence or presence of inhibitors (0–20 μM). Incubations were started with the addition of the enzyme (final volume of incubates: 500 μL), and stopped after 4, 8, and 12 min with 30 μL of 6 M HClO4. […] Xanthine and uric acid were quantified by HPLC (see details in Section 4.5). Quantification of xanthine, hypoxanthine, and uric acid was performed by the previously described method with minor modifications.

{"COMPOUND": "O=C(O)C1OC(Oc2c(-c3ccc(O)c(O)c3)oc3cc(O)cc(O)c3c2=O)C(O)C(O)C1O (stereo not shown) [Q3G, Quercetin-3-glucuronide]", "Effect on uric acid formation at 20 μM": "did not inhibit"}
{"COMPOUND": "COc1cc(-c2oc3cc(O)cc(O)c3c(=O)c2OC2OC(C(=O)O)C(O)C(O)C2O)ccc1O (stereo not shown) [I3G, Isorhamnetin-3-glucuronide]", "Effect on uric acid formation at 20 μM": "did not inhibit"}

---

Target: Xanthine oxidase (from bovine milk) (Bos taurus, UniProt P80457)
Construct: Xanthine oxidase (from bovine milk); purchased Sigma-Aldrich; host or cells: bovine milk (natural source)
Experiment: XO assay with xanthine substrate (uric acid formation, HPLC)
Type: biochemical
Details: 5 μM xanthine, 8 min incubation, uric acid formation; read-out: Xanthine Oxidation IC50
List of IC50 values.
The response must be a number in nM with no trailing unit.

The cases that follow already have their IC50 on record.
{"MOLECULE": "Oc1cccc(O)c1O", "EXPERIMENTAL_SYSTEM": "Xanthine oxidase (from bovine milk) (Bos taurus, UniProt P80457)", "UNIT_STRING": "nM", "MEASURED_RESULT": 1800}
{"MOLECULE": "O=c1c(O)c(-c2ccc(O)c(OS(=O)(=O)O)c2)oc2cc(O)cc(O)c12 [Q3′S, Quercetin-3′-sulfate]", "EXPERIMENTAL_SYSTEM": "Xanthine oxidase (from bovine milk) (Bos taurus, UniProt P80457)", "UNIT_STRING": "nM", "MEASURED_RESULT": 400}
{"MOLECULE": "O=c1[nH]c(=O)c2c[nH]nc2[nH]1 [Oxipurinol, oxipurinol, reference compound]", "EXPERIMENTAL_SYSTEM": "Xanthine oxidase (from bovine milk) (Bos taurus, UniProt P80457)", "UNIT_STRING": "nM", "MEASURED_RESULT": 4500}

// lookup IC50 for COc1ccc(-c2oc3cc(O)cc(O)c3c(=O)c2O)cc1O 200
